test: cytosolic pH regulators acting via V-ATPase – S. cerevisiae, pHLuorin, HTS validation (AID 504600); conditions: V-ATPase proton transport, at 10 µM, hits give high values;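 further: plate controls were DMSO for no effect and reference compound for full effect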

{"query-smiles": "COc1ccc(-c2csc(-c3cccnc3)n2)cc1C", "response / %": -1.19}
{"query-smiles": "COc1cc2c(cc1OC)CN(C(=O)c1ccc(S(=O)(=O)N(C)c3ccccc3)cc1)CC2", "response / %": 1.25}
{"query-smiles": "Cc1cc(O)c(C(C)C)cc1C1(c2cc(C(C)C)c(O)cc2C)OC(=O)c2ccccc21", "response / %": -4.85}
{"query-smiles": "Cn1cc(CN2CCN(CCO)CC2)c(-c2ccc(Oc3ccccc3)cc2)n1", "response / %": 3.7}

====

target: Integrin beta-1 (Homo sapiens) + Integrin alpha-4 (Homo sapiens) (UniProt P13612+P05556); assay: alpha4beta1 integrin LIBS antibody binding reduction – U937 cells, HUTS-21 mAb, flow cytometry, validation set, VLA-4 allosteric modulator project, pilot screen (AID 2674); settings: HUTS-21 LIBS mAb binding, at 6.7 µM, hits give high values, binding induced by LDV ligand;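 further: antibody binding induced by the VLA-4 ligand LDV present at three times its Kd; 0% = LDV ligand with antibody and no compound and 100% = antibody without LDV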
Sequence (P05556 whole entry, looked up): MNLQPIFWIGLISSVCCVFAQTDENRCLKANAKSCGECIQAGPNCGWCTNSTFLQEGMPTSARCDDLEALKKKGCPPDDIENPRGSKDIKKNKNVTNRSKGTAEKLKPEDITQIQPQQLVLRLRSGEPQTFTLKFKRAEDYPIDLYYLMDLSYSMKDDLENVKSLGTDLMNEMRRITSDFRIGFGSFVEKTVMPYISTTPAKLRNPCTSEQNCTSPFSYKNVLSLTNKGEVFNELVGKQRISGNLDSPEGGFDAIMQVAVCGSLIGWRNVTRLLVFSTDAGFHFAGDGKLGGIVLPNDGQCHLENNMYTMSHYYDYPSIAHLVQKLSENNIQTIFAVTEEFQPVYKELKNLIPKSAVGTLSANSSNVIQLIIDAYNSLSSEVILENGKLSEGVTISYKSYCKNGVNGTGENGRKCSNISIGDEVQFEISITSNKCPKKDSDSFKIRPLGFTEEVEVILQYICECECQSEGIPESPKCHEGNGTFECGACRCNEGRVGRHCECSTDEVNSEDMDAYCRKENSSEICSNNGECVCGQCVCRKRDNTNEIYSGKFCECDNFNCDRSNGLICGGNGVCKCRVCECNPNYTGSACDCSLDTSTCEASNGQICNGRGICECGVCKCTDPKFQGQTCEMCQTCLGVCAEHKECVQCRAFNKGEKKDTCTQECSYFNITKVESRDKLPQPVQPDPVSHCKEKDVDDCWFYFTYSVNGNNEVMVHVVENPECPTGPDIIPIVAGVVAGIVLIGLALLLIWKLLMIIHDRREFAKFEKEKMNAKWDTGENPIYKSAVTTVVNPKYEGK
Sequence (P13612 whole entry, looked up): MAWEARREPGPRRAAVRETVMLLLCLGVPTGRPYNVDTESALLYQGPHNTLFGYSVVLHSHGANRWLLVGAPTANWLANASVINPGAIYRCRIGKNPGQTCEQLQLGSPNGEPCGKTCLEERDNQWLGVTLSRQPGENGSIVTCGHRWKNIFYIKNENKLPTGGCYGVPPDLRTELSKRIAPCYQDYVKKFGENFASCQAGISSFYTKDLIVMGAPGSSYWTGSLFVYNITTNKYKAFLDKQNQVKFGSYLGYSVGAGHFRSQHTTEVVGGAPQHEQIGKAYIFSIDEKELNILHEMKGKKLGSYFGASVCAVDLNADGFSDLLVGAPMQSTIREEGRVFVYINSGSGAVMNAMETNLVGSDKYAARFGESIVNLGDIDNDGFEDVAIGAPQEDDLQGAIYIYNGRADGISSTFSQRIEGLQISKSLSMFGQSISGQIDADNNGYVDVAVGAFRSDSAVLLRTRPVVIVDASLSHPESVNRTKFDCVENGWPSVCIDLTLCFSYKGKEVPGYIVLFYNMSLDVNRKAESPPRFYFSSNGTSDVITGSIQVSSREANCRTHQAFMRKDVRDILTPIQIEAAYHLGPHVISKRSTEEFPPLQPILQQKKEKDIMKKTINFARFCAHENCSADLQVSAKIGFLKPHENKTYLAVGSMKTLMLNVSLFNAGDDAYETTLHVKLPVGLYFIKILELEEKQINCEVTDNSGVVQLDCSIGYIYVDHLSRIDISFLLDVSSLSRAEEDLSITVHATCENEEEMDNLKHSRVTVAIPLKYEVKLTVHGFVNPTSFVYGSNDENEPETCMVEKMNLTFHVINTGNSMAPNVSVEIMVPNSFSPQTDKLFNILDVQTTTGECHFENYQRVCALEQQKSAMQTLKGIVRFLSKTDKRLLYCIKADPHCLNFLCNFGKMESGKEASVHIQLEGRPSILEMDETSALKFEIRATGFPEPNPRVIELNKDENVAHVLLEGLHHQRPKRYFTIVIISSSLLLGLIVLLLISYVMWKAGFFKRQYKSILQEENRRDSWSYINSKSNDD
reported-endpoint: inhibition (%)

{"molecule": "CN(C)CCOC(c1ccccc1)c1ccccc1 (tested in a mixture with another compound)", "reported-endpoint": "inhibition", "measured-value": 13}
{"molecule": "Cc1onc(-c2c(Cl)cccc2Cl)c1C(=O)NC1C(=O)N2C1SC(C)(C)C2C(=O)O (stereo not drawn)", "reported-endpoint": "inhibition", "measured-value": -6.23}
{"molecule": "COc1ccc(C2C(C(=O)c3ccco3)=C(O)C(=O)N2CC2CCCO2)cc1 (stereo not drawn)", "reported-endpoint": "inhibition", "measured-value": -7.72}
{"molecule": "O=C(N/N=C\\c1cc([N+](=O)[O-])ccc1N1CCOCC1)c1ccccn1", "reported-endpoint": "inhibition", "measured-value": -7.79}
{"molecule": "O=C(c1ccc(Cl)cc1)C1CCCN(Cc2ccc(Oc3ncccn3)cc2)C1 (stereo not drawn)", "reported-endpoint": "inhibition", "measured-value": 24.4}
{"molecule": "NS(=O)(=O)c1ccc(CCNC(=O)C2CCCN2C(=O)OCc2ccccc2)cc1 (stereo not drawn)", "reported-endpoint": "inhibition", "measured-value": 1.61}
{"molecule": "CN1CC2CCCC3(C1)C(=O)NC1(CCCCC1)N=C23 (stereo not drawn)", "reported-endpoint": "inhibition", "measured-value": 3.7}
{"molecule": "COc1ccc(S(N)(=O)=O)cc1C(N)=O", "reported-endpoint": "inhibition", "measured-value": -0.45}
{"molecule": "C[C@]12CC[C@@H]3c4ccc(O)cc4C(=O)C[C@H]3[C@@H]1CC[C@@H]2O", "reported-endpoint": "inhibition", "measured-value": -0.33}
{"molecule": "CCC(C(=O)Nc1ccc2c(c1)OCCO2)c1ccccc1 (stereo not drawn)", "reported-endpoint": "inhibition", "measured-value": 8.29}
{"molecule": "O=C(/C=C/c1ccc2c(c1)OCO2)NCc1ccc(F)cc1", "reported-endpoint": "inhibition", "measured-value": -3.57}
{"molecule": "COc1cccc2c1OCC1COc3c(c(=O)n(C)c(=O)n3C)C21 (stereo not drawn)", "reported-endpoint": "inhibition", "measured-value": 14.6}
{"molecule": "COc1cc(C2Nc3ccccc3C(=O)N2c2ccccc2)ccc1O (stereo not drawn)", "reported-endpoint": "inhibition", "measured-value": 3.7}
{"molecule": "COc1ccc2[nH]c(=O)c(CNC3CCCCC3)cc2c1", "reported-endpoint": "inhibition", "measured-value": 11}
{"molecule": "CC(=O)c1c(C)c(C)c2n1CCn1c(C)ccc1-2", "reported-endpoint": "inhibition", "measured-value": -36.9}
{"molecule": "COc1ccc(C(Cl)=C(c2ccc(OC)cc2)c2ccc(OC)cc2)cc1", "reported-endpoint": "inhibition", "measured-value": -8.75}
{"molecule": "CC1CCN(C(=O)Oc2ccccc2)CC1", "reported-endpoint": "inhibition", "measured-value": 2.93}
{"molecule": "O=C(c1cc2cc(Br)ccc2o1)N1CCCC1", "reported-endpoint": "inhibition", "measured-value": -5.11}

Measured values drawn from PubChem BioAssay for this set.
